Sourced from patent US9315489B2

- measured-target: ABL1 (64-515) (Homo sapiens (Human), UniProt P00519)
- Sequence (P00519 64-515): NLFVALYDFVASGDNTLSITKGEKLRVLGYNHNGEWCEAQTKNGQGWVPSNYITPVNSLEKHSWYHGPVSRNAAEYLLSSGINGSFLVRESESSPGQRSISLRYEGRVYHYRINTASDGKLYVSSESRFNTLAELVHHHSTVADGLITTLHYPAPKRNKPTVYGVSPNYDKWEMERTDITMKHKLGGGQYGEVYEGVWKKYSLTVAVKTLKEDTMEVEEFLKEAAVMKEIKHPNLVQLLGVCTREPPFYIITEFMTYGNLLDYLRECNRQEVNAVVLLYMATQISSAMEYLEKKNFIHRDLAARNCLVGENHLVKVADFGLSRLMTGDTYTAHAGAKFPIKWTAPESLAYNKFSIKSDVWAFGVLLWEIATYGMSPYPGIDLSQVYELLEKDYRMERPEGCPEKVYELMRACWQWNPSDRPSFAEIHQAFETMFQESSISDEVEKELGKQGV
- experiment-summary: Radio ABL1 (64-515) assay (radiometric filter-binding)
- Format: biochemical
compounds and their reported pIC50
For clarity, pIC50 is expressed as the negative log10 of concentration in mol/L.

Field: example entries. Status: answers known.
structure-as-smiles: COc1ncc(-c2cc(C(=O)Nc3ccc(OC(F)(F)F)cc3)ccc2F)cn1
pIC50: 7.92
--
structure-as-smiles: O=C(Nc1ccc(OC(F)(F)F)cc1)c1cncc(-c2cccnc2O)c1
pIC50: 7.11
--
structure-as-smiles: COc1ccc(C(=O)Nc2ccc(OC(F)(F)F)cc2)cc1-c1cc[nH]n1
pIC50: 7.89
--
structure-as-smiles: O=C(Nc1ccc(OC(F)(F)F)cc1)c1cnc(C(F)(F)F)c(-c2cncnc2)c1
pIC50: 7.66

Data request: Query pIC50 for `COc1ccc(C(=O)Nc2ccc(OC(F)(F)F)cc2)cc1-c1ccc(F)nc1`
Data returned: 8.47

====

compounds and their reported pIC50
- measured-target: ABL1 (64-515) (Homo sapiens (Human))
- experiment-summary: Caliper ABL1 (64-515) assay (microfluidic mobility shift)
- Assay type: biochemical
For clarity, pIC50 is expressed as the negative log10 of concentration in mol/L.

structure-as-smiles: O=C(Nc1ccc(OC(F)(F)Cl)cc1)c1cnc(Cl)c(-c2cncnc2)c1
measure: pIC50
recorded-result: 8.54

Data request: Query pIC50 for `CCOc1ncc(C(=O)Nc2ccc(OC(F)(F)F)cc2)cc1-c1cncnc1`
Data returned: 8.03

Data request: Query pIC50 for `O=C(Nc1ccc(OC(F)(F)F)cc1)c1cncc(-c2cncc(F)c2)c1`
Data returned: 7.59

====

- measured-target: ABL1 (64-515) (Homo sapiens (Human), UniProt P00519)
- experiment-summary: Radio ABL1 (64-515) assay (radiometric filter-binding)
- Format: biochemical
measure: pIC50
For clarity, pIC50 is expressed as the negative log10 of concentration in mol/L.

Field: example entries. Status: answers known.
structure-as-smiles: O=C(Nc1ccc(OC(F)(F)F)cc1)c1cc(-c2cncnc2)ccc1F
pIC50: 7.70
--
structure-as-smiles: O=C(Nc1ccc(OC(F)(F)F)cc1)c1cncc(-c2cccnc2)c1
pIC50: 8.06
--
structure-as-smiles: O=C(Nc1ccc(OC(F)(F)F)cc1)c1ccc(F)c(-c2cc[nH]n2)c1
pIC50: 7.51
--
structure-as-smiles: COC(=O)c1cc(-c2cccc(C(=O)Nc3ccc(OC(F)(F)F)cc3)c2)cs1
pIC50: 8.48

Data request: Query pIC50 for `O=C(Nc1ccc(OC(F)(F)F)cc1)c1ccc(F)c(-c2cccnc2)c1`
Data returned: 7.89

====

- measured-target: ABL1 (64-515) (Homo sapiens (Human), UniProt P00519)
- experiment-summary: Caliper ABL1 (64-515) assay (microfluidic mobility shift)
- Format: biochemical
// thresholds for IC50 classes: low: < 5 nM; intermediate: ≥ 5 nM and < 30 nM; high: ≥ 30 nM

Solved cases (2 shown):
structure-as-smiles: Cc1ccc(C(=O)Nc2ccc(OC(F)(F)F)cc2)cc1-c1cncnc1
category-label: low

structure-as-smiles: Cc1ncc(C(=O)Nc2ccc(OC(F)(F)F)cc2)cc1-c1cncnc1
category-label: low

Data request: Which band does `O=C(Nc1ccc(OC(F)(F)Cl)cc1)c1cnc(Cl)c(-c2cncc(F)c2)c1` fall in?
Data returned: low

Data request: Which band does `N#CC1(c2ncc(C(=O)Nc3ccc(OC(F)(F)F)cc3)cc2-c2cncnc2)CCOCC1` fall in?
Data returned: intermediate

Data request: Which band does `O=C(Nc1ccc(OC(F)(F)F)cc1)c1cnc(Cl)c(-c2ccn[nH]2)c1` fall in?
Data returned: high

Data request: Which band does `O=C(Nc1ccc(OC(F)(F)Cl)cc1)c1cnc(OC2CCOCC2)c(-c2cncnc2)c1` fall in?
Data returned: low

Data request: Which band does `O=C(Nc1ccc(OC(F)(F)F)cc1)c1cccc(-c2cncnc2)n1` fall in?
Data returned: high

Data request: Which band does `COC(=O)c1ccc(C(=O)Nc2ccc(OC(F)(F)F)cc2)cc1-c1cncnc1` fall in?
Data returned: low

Data request: Which band does `COCCOc1ncc(C(=O)Nc2ccc(OC(F)(F)F)cc2)cc1-c1cncnc1` fall in?
Data returned: high

Data request: Which band does `Nc1ncc(-c2cncc(C(=O)Nc3ccc(OC(F)(F)F)cc3)c2)cn1` fall in?
Data returned: high

Data request: Which band does `O=C(Nc1ccc(OC(F)(F)F)cc1)c1cnc(Cl)c(-c2cccnc2)c1` fall in?
Data returned: intermediate

Data request: Which band does `O=C(Nc1ccc(OC(F)(F)F)cc1)c1cnc(OCCO)c(-c2cncnc2)c1` fall in?
Data returned: intermediate

Data request: Which band does `O=C(Nc1ccc(OC(F)(F)F)cc1)c1cc(-c2cncnc2)ccc1F` fall in?
Data returned: high

Data request: Which band does `N#CC1(c2ncc(C(=O)Nc3ccc(OC(F)(F)F)cc3)cc2-c2cncnc2)CCC1` fall in?
Data returned: intermediate
